# System tested: PCSK9 (Homo sapiens, UniProt Q8NBP7)
# Construct: biotin (biotinylated)
# Sequence (Q8NBP7 153-692): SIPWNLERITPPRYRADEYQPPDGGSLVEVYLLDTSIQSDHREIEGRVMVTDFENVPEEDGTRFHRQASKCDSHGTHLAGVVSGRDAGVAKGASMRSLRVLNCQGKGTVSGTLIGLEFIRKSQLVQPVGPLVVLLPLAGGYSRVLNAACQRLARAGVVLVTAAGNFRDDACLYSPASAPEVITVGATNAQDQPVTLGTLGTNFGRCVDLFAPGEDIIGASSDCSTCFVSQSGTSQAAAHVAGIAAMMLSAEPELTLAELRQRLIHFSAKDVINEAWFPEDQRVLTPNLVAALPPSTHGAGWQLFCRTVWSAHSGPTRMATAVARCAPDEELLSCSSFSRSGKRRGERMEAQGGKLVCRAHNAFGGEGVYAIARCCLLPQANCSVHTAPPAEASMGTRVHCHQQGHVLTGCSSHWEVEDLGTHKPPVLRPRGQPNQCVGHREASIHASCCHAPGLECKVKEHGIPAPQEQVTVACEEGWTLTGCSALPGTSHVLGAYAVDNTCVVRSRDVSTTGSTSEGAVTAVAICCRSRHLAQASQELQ
# Run description: PCSK9 Alexa FRET Standard assay (displacement of AlexaFluor647 tagged cyclic peptide Reagent A)
# Format: binding
# Settings: 0.5 nM PCSK9, 20 nM AF cyclic peptide Reagent A
Numbered stars: 1 amine (or outer) side, 2 acyl side, 3 side chain; on linkers, the order of the positions; unused ones are H or OH. Bridge positions count the residues as written; N and C are the ends. Square brackets hold non-standard residues; d marks the D form. Peptide text beside a SMILES is read from it. X2 = NC(=O)[C@H](CSCc1cccc(C[*:1])c1)CC(=O)[C@@H]1CCCN1[*:2]; Trp(5-F) = N[C@@H](Cc1c[nH]c2ccc(F)cc12)C(=O)O; Pro(4,4-F2) = O=C(O)[C@@H]1CC(F)(F)CN1; mXylylene = c1cc(C[*:1])cc(C[*:2])c1; Bta = N[C@@H](Cc1csc2ccccc12)C(=O)O; Aze = O=C(O)[C@@H]1CCN1; Mpa = O=C(O)CCS
# Lookup of reported IC50 keyed by entry

Example compounds with recorded IC50:
- C[C@@H]1NC(=O)[C@@H]2CCN2C(=O)[C@H](Cc2c[nH]c3ccc(F)cc23)NC(=O)[C@H](Cc2c[nH]c3ccc(F)cc23)NC(=O)[C@@H](C)NC(=O)[C@H](CCCCN)NC(=O)CCSCc2cccc(c2)CSC[C@@H](C(N)=O)CC(=O)[C@@H]2CCCN2C(=O)[C@H](Cc2ccc(O)cc2)NC1=O [Compound 034] ([Mpa]K[dA][Trp(5-F)][Trp(5-F)][Aze]AY; linker 1-C via X2): 1 to 100 nM
- C[C@@H]1NC(=O)[C@@H]2CCCN2C(=O)[C@H](Cc2csc3ccccc23)NC(=O)[C@H](Cc2c[nH]c3ccc(F)cc23)NC(=O)CNC(=O)[C@H](CCCCN)NC(=O)CCSCc2cccc(c2)CSC[C@@H](C(N)=O)NC(=O)[C@@H]2CCCN2C(=O)[C@H](Cc2ccc(O)cc2)NC1=O [Compound 024] ([Mpa]KG[Trp(5-F)][Bta]PAYPC-NH2; linker 1-10 via mXylylene): 1 to 100 nM

Problem: Request body: readout IC50, system PCSK9 (Homo sapiens, UniProt Q8NBP7), query C[C@@H]1NC(=O)[C@@H]2CC(F)(F)CN2C(=O)[C@H](Cc2c[nH]c3ccc(F)cc23)NC(=O)[C@H](Cc2c[nH]c3ccc(F)cc23)NC(=O)[C@@H](C)NC(=O)[C@H](CCCCN)NC(=O)CCSCc2cccc(c2)CSC[C@@H](C(N)=O)NC(=O)[C@@H]2CCCN2C(=O)[C@H](Cc2ccc(O)cc2)NC1=O [Compound 036] ([Mpa]K[dA][Trp(5-F)][Trp(5-F)][Pro(4,4-F2)]AYPC-NH2; linker 1-10 via mXylylene) . Return the value.
Solution: 100 to 1000 nM
